Listing of recorded logP by entry.
# experimentSummary: Measurement of log P values by HPLC on reversed phase columns (methods [a] pH 2.3, [b] pH 2.7, [c] pH 7.8)
# Format: physicochemical
# assaySetup: HPLC on reversed phase columns, method [b], pH 2.7
# Experimental: Measurement of log P-Values: Measurement of log P Values was Performed According EEC Directive 79/831 Annex V.A8 by HPLC (High Performance Liquid Chromatography) on reversed phase columns with the following methods: ^[a] […]
propertyMeasured: logP

O=C(NC1CCC1c1c(Cl)cccc1Cl)c1cccc(Cl)c1 (centres unmarked) [Example 729]: 3.87^[b]
Cc1nc(C(F)(F)F)c(C(=O)NC2CCC2c2ccc(Cl)cc2C(F)(F)F)s1 (centres unmarked) [Example 730]: 4.03^[b]
O=C(N[C@@H]1CCC[C@@H]1c1ccc(F)c(F)c1)c1sccc1C(F)(F)F (relative stereo) [Example 93]: 3.63^[b]
O=C(N[C@@H]1CC[C@@H]1c1ccc(Cl)cc1C(F)(F)F)c1nccnc1Cl (relative stereo) [Example 717]: 3.24^[b]
O=C(N[C@@H]1CCC[C@@H]1c1ccc(F)c(F)c1)c1ccncc1F (relative stereo) [Example 69]: 2.59^[b]
O=C(N[C@@H]1CCC[C@@H]1c1ccc(F)c(F)c1)c1ncccc1C(F)(F)F (relative stereo) [Example 90]: 3.31^[b]
Cn1cccc1C(=O)N[C@@H]1CCC[C@@H]1c1ccc(F)c(F)c1 (relative stereo) [Example 111]: 3.13^[b]
Cn1cc(C(=O)N[C@@H]2CCC[C@H]2c2ccc(F)c(F)c2)c(C(F)F)n1 (relative stereo) [Example 125]: 2.88^[b]
Cn1cc(C(=O)NC2CC2c2ccccc2)c(C(F)(F)F)n1 (centres unmarked) [Example 4]: 2.34^[b]
Cc1nc(C(F)(F)F)c(C(=O)NC2CCC2c2ccc(Cl)cc2C(F)(F)F)s1 (centres unmarked) [Example 731]: 3.75^[b]
Cc1nn(C)c(C)c1C(=O)NC1CC1c1ccc(Cl)cc1 (centres unmarked) [Example 13]: 2.89^[b]
O=C(N[C@@H]1C[C@H]1c1ccccc1)c1ccccc1Br (relative stereo) [Example 45]: 2.79^[b]
O=C(NC1CC1c1ccccc1)c1ccccc1C(F)(F)F (centres unmarked) [Example 40]: 2.79^[b]
Cc1ncccc1C(=O)N[C@@H]1CCC[C@@H]1c1ccc(F)c(F)c1 (relative stereo) [Example 62]: 1.67^[b]
Cc1nnsc1C(=O)N[C@@H]1CCC[C@@H]1c1ccc(F)c(F)c1 (relative stereo) [Example 72]: 2.86^[b]
COc1ccccc1C(=O)N[C@@H]1CCC[C@@H]1c1ccc(F)c(F)c1 (relative stereo) [Example 75]: 3.39^[b]
Cc1nn(C)cc1C(=O)NC1CC1c1ccccc1 (centres unmarked) [Example 6]: 1.70^[b]
Nc1nc(C(F)(F)F)c(C(=O)N[C@@H]2CCC[C@@H]2c2ccc(F)c(F)c2)s1 (relative stereo) [Example 97]: 2.82^[b]
CC(F)c1nn(C)cc1C(=O)N[C@@H]1CCC[C@@H]1c1ccc(F)c(F)c1 (relative stereo) [Example 53]: 2.62^[b]
O=C(NC1CC1c1ccc(Br)cc1)c1cccnc1Cl (centres unmarked) [Example 35]: 2.34^[b]
O=C(N[C@@H]1CCC[C@@H]1c1ccc(F)c(F)c1)c1sccc1Cl (relative stereo) [Example 80]: 3.72^[b]
Cn1cc(C(=O)N[C@@H]2CCC[C@@H]2c2ccc(F)c(F)c2)c(C(F)(F)F)c1 (relative stereo) [Example 91]: 3.27^[b]
Cc1nc(C(F)(F)F)c(C(=O)N[C@@H]2CCC[C@@H]2c2ccc(F)c(F)c2)s1 (relative stereo) [Example 55]: 3.19^[b]
Cc1cccnc1C(=O)N[C@@H]1CCC[C@H]1c1ccc(F)c(F)c1 (relative stereo) [Example 103]: 3.33^[b]
Cc1ncccc1C(=O)N[C@@H]1CCC[C@H]1c1ccc(F)c(F)c1 (relative stereo) [Example 63]: 1.75^[b]
Cc1nocc1C(=O)N[C@@H]1CCC[C@H]1c1ccc(F)c(F)c1 (relative stereo) [Example 60]: 2.78^[b]
COc1nn(C)cc1C(=O)N[C@@H]1CCC[C@@H]1c1ccc(F)c(F)c1 (relative stereo) [Example 76]: 2.64^[b]
O=C(NC1CC1c1ccc(F)cc1)c1cnc(Cl)cc1Cl (centres unmarked) [Example 36]: 2.70^[b]
CSc1ccccc1C(=O)N[C@@H]1CCC[C@@H]1c1ccc(F)c(F)c1 (relative stereo) [Compound 82]: 3.35^[b]

* * *

Listing of recorded logP by entry.
# experimentSummary: Measurement of log P values by HPLC on reversed phase columns (methods [a] pH 2.3, [b] pH 2.7, [c] pH 7.8)
# Format: physicochemical
# assaySetup: HPLC reversed phase, method [b] (pH 2.7)
# Experimental: Measurement of log P-Values: Measurement of log P Values was Performed According EEC Directive 79/831 Annex V.A8 by HPLC (High Performance Liquid Chromatography) on reversed phase columns with the following methods: ^[a] […]
propertyMeasured: logP

O=C(NC1CCCC1c1ccc(C(F)(F)F)cc1)c1ccccc1I (stereo not drawn) [Example 363]: 3.86^[b]
O=C(NC1CCCCC1c1ccccc1Br)c1cccnc1Cl (stereo not drawn) [Example 413]: 3.25^[b]
O=C(NC1CCC1c1ccccc1Cl)c1cccc(Cl)c1 (stereo not drawn) [Example 448]: 3.36^[b]
O=C(NC1CCCC1c1ccc(Cl)cc1)c1cccnc1Cl (stereo not drawn) [Example 281]: 2.81^[b]
CN(C(=O)c1ccccc1C(F)(F)F)C1CCCC1c1ccc(C(F)(F)F)cc1 (stereo not drawn) [Example 307]: 4.46^[b]
Cc1nn(C)cc1C(=O)NC1CCCC1c1ccccc1Br (stereo not drawn) [Example 345]: 3.69^[b]
O=C(N[C@@H]1C[C@@H]1c1ccc(Cl)cc1Cl)c1ccccc1I (relative stereo) [Compound 578]: 3.43^[b]
O=C(N[C@@H]1CC[C@H]1c1ccc(F)cc1C(F)(F)F)c1ccc(Cl)cc1 (relative stereo) [Example 507]: 3.94^[b]
O=C(NC1CCCCC1c1ccc(Cl)cc1)c1ccccc1C(F)(F)F (stereo not drawn) [Example 364]: 3.84^[b]

* * *

# experimentSummary: Measurement of log P values by HPLC on reversed phase columns (methods [a] pH 2.3, [b] pH 2.7, [c] pH 7.8)
# Type: physicochemical
# assaySetup: method [b], HPLC reversed phase, pH 2.7
propertyMeasured: logP

O=C(NC1CCC1c1ccccc1C(F)(F)F)c1ccc(Cl)cc1Cl (stereo not drawn): 3.81^[b]
O=C(N[C@@H]1CC[C@H]1c1ccccc1Cl)c1ccc(Cl)cc1Cl (relative stereo): 3.84^[b]
Cn1nc(C(F)F)c(C(=O)NC2CC2c2ccc(Cl)cc2)c1F (stereo not drawn): 2.61^[b]
O=C(NC1CCC1c1ccccc1Cl)c1ncc(C(F)(F)F)cc1Cl (stereo not drawn): 3.96^[b]
Fc1ccc(C2CCCC2NC(=S)c2sccc2C(F)(F)F)cc1F (stereo not drawn): 4.59^[b]
Cn1nc(C(F)F)c(C(=O)N(C2CC2)C2CCCCC2c2ccc(Cl)cc2Cl)c1F (stereo not drawn): 5.05^[b]
O=C(N[C@@H]1CCC[C@H]1c1ccc(F)c(F)c1)c1ccccc1I (relative stereo): 3.56^[b]
Cn1nc(C(F)F)c(C(=O)NC2CC2c2cccc(F)c2)c1Cl (stereo not drawn): 2.75^[b]
Cc1nc(C(F)(F)F)c(C(=O)N[C@@H]2CCC[C@H]2c2ccc(F)c(F)c2)s1 (relative stereo): 3.42^[b]
Cc1nc(C(F)(F)F)c(C(=O)N(C2CC2)C2CCCCC2c2ccccc2)s1 (stereo not drawn): 4.69^[b]
O=C(N[C@@H]1CCC[C@H]1c1ccc(F)c(F)c1)c1ccsc1I (relative stereo): 3.58^[b]
Cn1cc(C(=O)N(C2CC2)C2CCCC2c2ccccc2Cl)c(C(F)F)n1 (stereo not drawn): 3.85^[b]
Cn1cc(C(=O)NC2CCCCC2c2ccccc2)c(C(F)F)n1 (stereo not drawn) [Example 186]: 3.00^[b]
O=C(NC1CC1c1ccc(Cl)cc1Cl)c1ccccc1I (stereo not drawn): 3.74^[b]
O=C(NC1CCC1c1ccccc1C(F)(F)F)c1cccnc1C(F)(F)F (stereo not drawn): 2.94^[b]
Cc1nn(C)c(F)c1C(=O)N(C1CC1)C1CCCCC1c1ccc(Cl)cc1Cl (stereo not drawn): 4.59^[b]
O=C(NC1CC1c1ccc(Cl)cc1)c1ccccc1Cl (stereo not drawn): 3.09^[b]
O=C(NC1CC1c1ccc(Cl)cc1Cl)c1ccccc1Cl (stereo not drawn): 3.57^[b]

* * *

# experimentSummary: Measurement of log P values by HPLC on reversed phase columns (methods [a] pH 2.3, [b] pH 2.7, [c] pH 7.8)
# Type: physicochemical
# assaySetup: HPLC on reversed phase column, method [b], pH 2.7
Listing of recorded logP by entry.
propertyMeasured: logP

O=C(N[C@@H]1CC[C@H]1c1cccc(F)c1C(F)(F)F)c1ncccc1Cl (relative stereo) [Example 616]: 3.30^[b]
O=C(N[C@@H]1CC[C@H]1c1ccc(Cl)cc1C(F)(F)F)c1c(F)cccc1F (relative stereo) [Example 701]: 3.75^[b]
O=C(N[C@@H]1CC[C@H]1c1ccccc1C(F)(F)F)c1sccc1I (relative stereo) [Example 635]: 3.99^[b]
O=C(N[C@@H]1CC[C@H]1c1cccc(F)c1C(F)(F)F)c1ccc(Cl)cc1 (relative stereo) [Example 600]: 3.88^[b]
O=C(N[C@@H]1CC[C@H]1c1ccc(Cl)cc1Cl)c1cccnc1Cl (relative stereo) [Example 674]: 3.16^[b]
O=C(N[C@@H]1CC[C@H]1c1cccc(F)c1C(F)(F)F)c1ncc(C(F)(F)F)cc1Cl (relative stereo) [Example 602]: 4.10^[b]
O=C(N[C@@H]1CC[C@H]1c1ccc(Cl)cc1C(F)(F)F)c1ncccc1Cl (relative stereo) [Example 698]: 3.84^[b]
O=C(N[C@@H]1CC[C@H]1c1ccc(Br)cc1C(F)(F)F)c1nccnc1C(F)(F)F (relative stereo) [Example 660]: 3.97^[b]
O=C(N[C@@H]1CC[C@H]1c1ccc(Cl)cc1C(F)(F)F)c1ncc(C(F)(F)F)cc1Cl (relative stereo) [Example 700]: 4.65^[b]
O=C(N[C@@H]1CC[C@H]1c1ccc(Cl)cc1C(F)(F)F)c1cccnc1Cl (relative stereo) [Example 715]: 3.33^[b]
O=C(N[C@@H]1CC[C@@H]1c1ccc(Cl)cc1C(F)(F)F)c1ncccc1Cl (relative stereo) [Example 699]: 3.49^[b]
O=C(N[C@@H]1CC[C@H]1c1ccc(Cl)cc1Cl)c1nccnc1Cl (relative stereo) [Example 675]: 3.43^[b]
O=C(NC1CCC1c1ccc(Cl)cc1C(F)(F)F)c1sccc1I (stereo not drawn) [Example 710]: 4.55^[b]
O=C(N[C@@H]1CC[C@H]1c1cccc(F)c1C(F)(F)F)c1cccc(Cl)c1 (relative stereo) [Example 596]: 3.92^[b]
Cc1nc(C(F)(F)F)c(C(=O)N[C@@H]2CC[C@@H]2c2ccc(Cl)cc2Cl)s1 (relative stereo) [Example 669]: 3.58^[b]
